assay: Pharmacokinetic test in mice; assay type: in vivo; settings: mouse, po; male ICR mice, intragastric administration (10 mg/kg), plasma
Known AUC(0-t) of a selection of molecules
property.label: AUC(0-t) (ng·h/mL)

smiles.data | data.value
CS(=O)(=O)N1CC(OC(=O)N2CCC3(CC2)CC(Oc2cc(CN4Cc5ccc(C(F)(F)F)cc5C4)ccn2)C3)C1 | 13500
CS(=O)(=O)N1CCC(CCOc2cc(CN3Cc4ccc(C5CC5)cc4C3)ccn2)CC1 | 7780
[2H]C([2H])([2H])n1cc(C(=O)N[C@H]2CC[C@H](CCOc3cc(CN4Cc5ccc(C(F)(F)F)cc5C4)ccn3)CC2)cn1 | 20800
[2H]C([2H])([2H])C(=O)N[C@H]1CC[C@H](c2cc3oc(CN4Cc5ccc(C(F)(F)F)cc5C4)cc(=O)c3o2)CC1 | 9460
